Hello, the source for this data is patent US20260258115A1, in case you need it.

// reported Kd per item
Target: RSV prefusion F (preF), subtype B (respiratory syncytial virus, subtype B)
Test: BLI, IgG

{"Binder": "ADI-14604 (antibody, V domains shown) VH: EVQLLESGGGLVQPGGSLRLSCSASGFTFNNYVMHWVRQAPGKGLEDASAISSNGVSTNYADSVKGRFTISRDNSKNTLYLQMRSLRAEDTALYYCVRDLIPHDSSAYYGYHGMDVWGQGTTVTVSS VL: QPVLTQPPSASGTPGQSVTISCSGSSSNIGTNVVNWYQQLPGTAPKLLIYSNDLRPSGVPDRFSGSKSGTSASLAISGLQSEDEANYYCAAWDDSLNGVLFGGGTKLTVL", "U": "nM", "Kd": 1.53}
{"Binder": "ADI-14408 (antibody, V domains shown, also called Ab 74) VH: QVQLVQSGPALVKTTQTLTLTCTFSGFSLTTSGMCVSWIRQPPGKALEWLARIDWDDDKYYSTSLKTRLTISKDTSKNQVVLTLTNVDPVDTATYYCARMQKYDSSGYYLHYFDSWGQGTLVTVSS VL: DIRLTQSPSSLSASVGDRVTIACRASQSISSYLNWYQQKPGKSPKVLIYAASILQTGVPSRFSGSGSGTDFTLTISSLQPEDFATYYCQQSYSINQYTFGQGTKVEIK", "U": "nM", "Kd": 12.8}
{"Binder": "ADI-14396 (antibody, V domains shown, also called Ab 63) VH: EVQLVESGGGVVQPGRSLRLSCAASGFTFSSYAMHWVRQAPGKGLEWVAVISYDGSNKYYADSVKGRFTISRDNSKNTLYLQMNSLRAEDTAVYYCARELRYFDWEYGGMDVWGQGTTVTVSS VL: EIVLTQSPSSLSASVGDRVTITCQASQDISNYLNWYQQKPGKAPKLLIYDASNLETGVPSRFSGSGSGTDFTFTISSLQPEDIATYYCQQYDNLPMYTFGQGTKLEIK", "U": "nM", "Kd": 15.5}
{"Binder": "ADI-14602 (antibody, V domains shown, also called Ab 130) VH: EVQLVESGGGVVQPGGSLRLSCAASGFSFSSCGMHWVRQVSGKGLEWVAFIRYDGSNKFYADSVKGRFTISRDNSKNTLYLQMNSLRVEDTAVYYCAKGGLEDVSTGYSPHYYYGMDVWGQGTTVTVSS VL: QPVLTQPPSVSVSPGQTASITCSGDKLAYKYTCWYQQKPGQSPVLVIFQDSKRPSGIPERFSGSNSGNTATLTISGTQALDEADYYCQAWDSSTVVFGGGTKLTVL", "U": "nM", "Kd": 8.94}
{"Binder": "ADI-21023 (antibody, V domains shown) VH: EVQLVESGGGLVKPGGSLRLSCAASGFRFSSYGMHWVRQAPGRGLEWVSSITAGSSYMDYADSVKGRFSISRDNAKTSLYLQMNSLRAEDTAIYYCARENYDTGRGLNWFDPWGQGTLVTVSS VL: QSVVTQPPSVSGAPGQRVTISCTGSSSNIGAGYDVHWYRQLPGTAPEVLIYGNNNRPSGVPDRFSGSKTGTSASLAITGLLAEDGADYYCQSYDRSQLWVFGGGTQLTVP", "U": "nM", "Kd": 0.316}
{"Binder": "ADI-21042 (antibody, V domains shown, also called Ab 290) VH: EVQLVESGPRLVKPSQTLSLTCNVSGVPVNTGGYYWSWIRRHPIKGLEWIGYIYYSGSTHYNPSLRGRATMSVDTSKNQFSLRLSSVTAADTAVYYCAKDTITVLRGVAKKGVFDPWGQGILVTVSS VL: DIQMTQSPSTLSASVGDRVIITCRASQSISSWLAWYQYKPGKAPNLLIYKATTLDSGVPSRFSGSGSGTEFTLTISSLQPDDFATYYCQQYDSYPTFGQGTKVEIK", "U": "nM", "Kd": 1.18}
{"Binder": "ADI-21031 (antibody, V domains shown) VH: EVQLVESGPGLVKPSQTLSLTCTVSGGSISNSNYFWSWIRQPAGKGLEWIGRVHSSGTTSYNPSLKSRITISVDASESQFSLNLTSVTAADTAIYYCARDSSDWGLGWYFDLWGRGTLVTVSS VL: ETTLTQSPATLSLSPGERATLSCRASQSVTFYLAWYQHKPGQAPRLLIFDASKRATGIPARFSGSGSGTDFTLTISSLEPEDFALYYCQQRSDWPQTFGQGTKVDIK", "U": "nM", "Kd": 1.5}
{"Binder": "ADI-14423 (antibody, V domains shown, also called Ab 89) VH: EVQLVESGGVVIQPGGSLRLSCAASGFNFDDYSMHWVRQAPGKGLEWVSLISWDGGITYYADSVKGRFTISRDNGKKSLYLQMNSLRTEDTALYYCAKDIDIYSDYAGYFDYWGQGTLVTVSS VL: DIRMTQSPSSLSASVGDRVTITCRASQGIRNDLGWYQQKPGKAPKRLIYAASSLQSGVPSRFSGSGSGTEFTLTISSLQPEDFATYYCLQHNSYPFTFGQGTRLEIK", "U": "nM", "Kd": 3.4}
{"Binder": "ADI-21034 (antibody, V domains shown) VH: QVQLQQSGAEVKKPGESLTISCKGSGYSFGNYWISWVRQMPGKGLEWMGRIDPSDSYVNYSPSFQGNVTMSVDKSSSTAYLQWSSLKASDTAMYYCARLAGYSTLWGQGTLVTVSS VL: EIVLTQSPGTLSLSPGERATLSCRASQSFGSIYLAWYQQKPGQAPRLLIYGTSSRATGIPDRFSGSGSGTDFTLTIRRLEPEDFAVYYCLYYGSSPGATFGPGTKVDIK", "U": "nM", "Kd": 0.174}
{"Binder": "ADI-20972 (antibody, V domains shown) VH: QVQLQQWGAGLLRPSETLSLTCAVSGGSFSGHYWSWIRQPPGKGLEWIGGINHSGNTNYSPSLRSRVTMSVDTSRNQFSLMLRSVTAADTAVYFCARNVPNLYGDYPRWFDPWGQGTLVTVSS VL: QSVLTQPASVSGSPGQSITISCTGTSSDVGGFNYVSWYQHHPGKAPKLMIYDVNNRPSGASNRFSGSKSGNTASLTISGLQAEDEADYYCSSYRSSDTLYVFGTGTKVTVL", "U": "nM", "Kd": 6.06}
